Test system: Rattus norvegicus
Assay: Systolic blood pressure (SBP) in anesthetized spontaneously hypertensive rats(SHR) at 7.5 hours after administration of 75 mg/kg dose perorally; NS is not statistically significant

- compound: "CC(C)NCCCOc1ccc2c(=O)cc(-c3ccccc3)oc2c1"
  Decrease in Systolic blood pressure: "Not significant"
- compound: "COc1c(-c2ccccc2)oc2cc(OCC(O)CNC(C)C)ccc2c1=O (centres undefined)"
  Decrease in Systolic blood pressure: "Not significant"
- compound: "CC(C)[N+](C)(C)CC(O)COc1ccc2c(=O)cc(-c3ccccc3)oc2c1.[I-] (centres undefined)"
  Decrease in Systolic blood pressure: "Not significant"
- compound: "O=c1cc(-c2ccccc2)oc2cc(OCC(O)CNCC(O)COc3ccccc3)ccc12 (centres undefined)"
  Decrease in Systolic blood pressure: "Not significant"
- compound: "O=c1cc(-c2ccccc2)oc2cc(OCC(O)CNC3CCS(=O)(=O)C3)ccc12 (centres undefined)"
  Decrease in Systolic blood pressure: "Not significant"
- compound: "NCC(O)COc1ccc2c(=O)cc(-c3ccccc3)oc2c1 (centres undefined)"
  Decrease in Systolic blood pressure: "Not significant"
- compound: "CC(C)NCC(O)COc1ccc2c(c1)OC(c1ccccc1)CC2=O (centres undefined)"
  Decrease in Systolic blood pressure: "Not significant"
- compound: "CC(C)NCC(O)COc1ccc2c(=O)c(Cc3ccccc3)c(-c3ccccc3)oc2c1 (centres undefined)"
  Decrease in Systolic blood pressure: "Not significant"
